// data source = patent US6670446B1

System: Staphylococcus aureus 446
assaySummary: MIC, standard broth micro-dilution assay, SA 446
Format: cell-based
measurementName: minimal inhibitory concentration (MIC), SA 446
One number for each entry.

# map each molecule to its minimal inhibitory concentration (MIC), SA 446
1. CC(C)C(C(=O)NC1C(=O)NC(CC(N)=O)C(=O)NC2C(=O)NC3C(=O)NC(C(=O)NC(C(=O)O)c4cc(O)cc(O)c4-c4cc3ccc4O)C(OC3CC(C)(N)C(O)C(C)O3)c3ccc(c(Cl)c3)Oc3cc2cc(c3OC2OC(CO)C(O)C(O)C2OC2CC(C)(N)C(O)C(C)O2)Oc2ccc(cc2Cl)C1O)N(C)C(=O)OC(C)(C)C (centres unmarked)
2. CC(C)CC(NCc1ccc(-c2ccccc2)cc1)C(=O)NC1C(=O)NC(CC(N)=O)C(=O)NC2C(=O)NC3C(=O)NC(C(=O)NC(C(=O)O)c4cc(O)cc(O)c4-c4cc3ccc4O)C(OC3CC(C)(N)C(O)C(C)O3)c3ccc(c(Cl)c3)Oc3cc2cc(c3OC2OC(CO)C(O)C(O)C2OC2CC(C)(N)C(O)C(C)O2)Oc2ccc(cc2Cl)C1O (centres unmarked)

Outgoing:
32
0.125
